- Test system: HEK-293T
- Test Details: Multiplex assay against HEK293T
- Format: toxicity, cell-based
- Measurement Context: human, 24 h, 1 µM, compound concentration 1 uM, replicate 1
Assay Readout: Population Healthy Nuclei (%)

Asked: Endpoint output: Population Healthy Nuclei (%) of NCCc1cn(S(=O)(=O)c2c(Cl)nc3sccn23)c2ccccc12.O=C(O)C(=O)O . Value?
Given back: 79%

Asked: Endpoint output: Population Healthy Nuclei (%) of CC(C)(C)c1cc(NC(=O)Nc2ccc(-c3cn4c(n3)sc3cc(OCCN5CCOCC5)ccc34)cc2)no1 . Value?
Given back: 84%

Asked: Endpoint output: Population Healthy Nuclei (%) of CN(C)C(=O)Cn1cc(-c2ccc(-c3cncc4ccccc34)cc2)cn1 . Value?
Given back: 79%

Asked: Endpoint output: Population Healthy Nuclei (%) of Cc1cnc(-c2cc(N3CCN(C(=O)CCS(C)(=O)=O)CC3)ncc2Cl)c(C)c1 . Value?
Given back: 78%

Asked: Endpoint output: Population Healthy Nuclei (%) of CC(/C=C1\SC(=S)N(CCCC(=O)Nc2ccc(C(=O)O)c(O)c2)C1=O)=C\c1ccccc1 . Value?
Given back: 79%

Asked: Endpoint output: Population Healthy Nuclei (%) of CN1CCN(c2cc(-c3ccccc3)nc(N)n2)CC1 . Value?
Given back: 79%

* * *

Field: Population Fragmented Nuclei (%). Provide a value for each of the compounds that follow.
- System: Fibroblast
- Test Details: Multiplex assay against human fibroblast
- Type: toxicity, cell-based
- Measurement Context: 12 h, 1 µM, compound concentration 1 uM, replicate 2
Entry rule: numbers only, all in %.

Asked: Endpoint output: Population Fragmented Nuclei (%) of N#Cc1c(Oc2cccc(OS(=O)(=O)CCCC(F)(F)F)c2)cccc1C(F)(F)F . Value?
Given back: 27

Asked: Endpoint output: Population Fragmented Nuclei (%) of Cc1noc(-c2ccc(-c3ccc(CC(=O)O)cc3)cc2)c1NC(=O)O[C@H](C)c1ccccc1Cl . Value?
Given back: 21

Asked: Endpoint output: Population Fragmented Nuclei (%) of Cc1onc(-c2ccccc2Cl)c1C(=O)N(C)c1ccc(Cl)cc1 . Value?
Given back: 22

Asked: Endpoint output: Population Fragmented Nuclei (%) of COc1ccccc1N1CCN(C[C@@H](C(=O)NC(C)(C)C)c2ccccc2)CC1.Cl.Cl . Value?
Given back: 25

Asked: Endpoint output: Population Fragmented Nuclei (%) of Cc1c(CC(=O)O)c2cccnc2n1Cc1ccc(S(C)(=O)=O)cc1C(F)(F)F . Value?
Given back: 33

* * *

- Tested on: Fibroblast
- Test Details: Multiplex assay against human fibroblast
- Format: toxicity, cell-based
- Measurement Context: 48 h, 10 µM, compound concentration 10 uM, replicate 2
Assay Readout: Population Healthy Nuclei (%)
Entry rule: numbers only, all in %.

Asked: Endpoint output: Population Healthy Nuclei (%) of CC[C@@H](C)Nc1nc(C)nc2c(-c3ccc(OC)nc3C)c(C)nn12 . Value?
Given back: 50

Asked: Endpoint output: Population Healthy Nuclei (%) of COc1cccc2c1c(NS(=O)(=O)c1ccc(Cl)s1)nn2Cc1cccc(CNC(=O)C(C)(C)O)c1 . Value?
Given back: 49

Asked: Endpoint output: Population Healthy Nuclei (%) of CC(C)c1noc(N2CCC(COc3ccc(-c4ccc(S(C)(=O)=O)cc4)nc3)CC2)n1 . Value?
Given back: 51

Asked: Endpoint output: Population Healthy Nuclei (%) of CC(C)(C)c1cc(NC(=O)Nc2ccc(-c3cn4c(n3)sc3cc(OCCN5CCOCC5)ccc34)cc2)no1 . Value?
Given back: 50
